target: SaMhqR (Staphylococcus aureus, UniProt W8U802); construct: gene ACR79_11795; full-length (144 amino acids), C-terminal His-tag, homodimer; test: crystal structure (co-crystallized with MHQ, oxidized to MBQ) and ITC; format: binding
Sequence (W8U802 entry or part of it): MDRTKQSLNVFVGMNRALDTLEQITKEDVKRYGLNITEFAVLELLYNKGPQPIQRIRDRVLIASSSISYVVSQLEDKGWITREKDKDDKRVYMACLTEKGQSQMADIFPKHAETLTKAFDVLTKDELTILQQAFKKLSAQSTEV
pKd: −log10 of the molar value.
PARAMETER_MEASURED: pKd

Incoming: pKd for `CC1=CC(=O)C=CC1=O` ?
Outgoing: ~5.52

Origin of the recorded values: paper PMC12893000
